The measured values listed here are drawn from patent US20170253581A1.

Biological target: Myc/Max binding to DNA (Homo sapiens, UniProt P01106)
Sequence (P01106 whole entry): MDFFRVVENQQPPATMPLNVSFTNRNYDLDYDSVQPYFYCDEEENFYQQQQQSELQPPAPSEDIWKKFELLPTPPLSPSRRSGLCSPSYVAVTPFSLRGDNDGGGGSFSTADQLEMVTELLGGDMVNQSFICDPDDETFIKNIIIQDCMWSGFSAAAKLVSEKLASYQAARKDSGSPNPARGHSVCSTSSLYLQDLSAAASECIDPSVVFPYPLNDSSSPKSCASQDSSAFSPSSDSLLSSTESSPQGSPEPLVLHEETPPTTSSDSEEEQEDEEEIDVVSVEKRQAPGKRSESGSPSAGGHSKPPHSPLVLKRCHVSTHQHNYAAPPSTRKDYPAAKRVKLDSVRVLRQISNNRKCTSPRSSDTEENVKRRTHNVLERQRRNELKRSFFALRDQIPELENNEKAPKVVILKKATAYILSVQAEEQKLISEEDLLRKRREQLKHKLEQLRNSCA
Experiment: Electrophoretic mobility shift assay (EMSA) of Myc/Max binding to DNA
Format: biochemical
Details: EMSA, 50 uM test compound; read-out: Bound DNA (%) (50uM)
Please go through the items and note down their remaining activity at 50 µM.
The reply should contain only the number, in %.

Give its remaining activity at 50 µM value. Item: Oc1cc(OCc2ccc(Cl)cc2)ccc1-c1[nH]nc(C(F)(F)F)c1-c1ccc2c(c1)OCCO2 98

Give its remaining activity at 50 µM value. Item: CCc1ccc(Oc2c(-c3ccc(Oc4ccc(Cl)cc4)cc3O)n[nH]c2C(F)(F)F)cc1 90

Give its remaining activity at 50 µM value. Item: Oc1cc(OCc2ccc(Cl)cc2)ccc1-c1n[nH]c(C(F)(F)F)c1Cc1ccccc1Cl 97

Give its remaining activity at 50 µM value. Item: Cn1nc(C(F)(F)F)cc1-c1cnc(O)cn1 98

###

Biological target: Myc/Max binding to DNA (Homo sapiens)
Test: Electrophoretic mobility shift assay (EMSA) of Myc/Max binding to DNA
Type: biochemical
Conditions: EMSA, 200 uM test compound; read-out: Bound DNA (%) (200uM)
Please go through the items and note down their remaining activity at 200 µM.
The reply should contain only the number, in %.

Myc/Max binding to DNA (Homo sapiens) / remaining activity at 200 µM / CCc1ccc(Oc2c[nH]nc2-c2ccc(OCc3ccc(C(F)(F)F)cc3)cc2O)cc1 : value? 20

Myc/Max binding to DNA (Homo sapiens) / remaining activity at 200 µM / Oc1cc(OCc2ccc(Cl)cc2)ccc1-c1n[nH]cc1Oc1ccccc1 : value? 18

Myc/Max binding to DNA (Homo sapiens) / remaining activity at 200 µM / Cc1[nH]nc(-c2ccc(OCCc3ccc(Cl)cc3)cc2O)c1Oc1ccccc1 : value? 54

Myc/Max binding to DNA (Homo sapiens) / remaining activity at 200 µM / Cc1[nH]nc(-c2ccc(OCc3ccc(F)cc3)cc2O)c1Oc1ccccc1 : value? 26

Myc/Max binding to DNA (Homo sapiens) / remaining activity at 200 µM / CCc1ccc(Oc2c[nH]nc2-c2ccc(OCc3ccncc3)cc2O)cc1 : value? 101

Myc/Max binding to DNA (Homo sapiens) / remaining activity at 200 µM / CCc1ccc(Oc2c[nH]nc2-c2ccc(OCc3ccc(Cl)cc3)cc2O)cc1 : value? 19

Myc/Max binding to DNA (Homo sapiens) / remaining activity at 200 µM / Cc1[nH]nc(-c2ccc(OCc3ccc(Cl)cc3)cc2O)c1Oc1ccccc1 : value? 39

Myc/Max binding to DNA (Homo sapiens) / remaining activity at 200 µM / CCc1ccc(Oc2cn(C)nc2-c2ccc(OCc3ccc(Cl)cc3)cc2O)cc1 : value? 113

Myc/Max binding to DNA (Homo sapiens) / remaining activity at 200 µM / CCc1ccc(Oc2c(-c3ccc(OCc4ccc(Cl)cc4)cc3O)n[nH]c2C(F)(F)F)cc1 : value? 2

Myc/Max binding to DNA (Homo sapiens) / remaining activity at 200 µM / CCc1ccc(Oc2c[nH]nc2-c2ccc(OCc3cnn(C)c3)cc2O)cc1 : value? 87

Myc/Max binding to DNA (Homo sapiens) / remaining activity at 200 µM / Oc1cc(OCc2ccccc2)ccc1-c1n[nH]cc1Oc1ccccc1 : value? 11

Myc/Max binding to DNA (Homo sapiens) / remaining activity at 200 µM / Cc1[nH]nc(-c2ccc(OCc3cnn(C)c3)cc2O)c1Oc1ccccc1 : value? 85

Myc/Max binding to DNA (Homo sapiens) / remaining activity at 200 µM / CCc1ccc(Oc2c(-c3ccc(OCCc4cccc(C(F)(F)F)c4)cc3O)n[nH]c2C(F)(F)F)cc1 : value? 0

Myc/Max binding to DNA (Homo sapiens) / remaining activity at 200 µM / Cc1[nH]nc(-c2ccc(OCc3ccncc3)cc2O)c1Oc1ccccc1 : value? 87
